Molecular target: human TrxR1 Sec498Cys mutant enzyme (Homo sapiens, UniProt Q16881, U648C)
Experiment: DTNB reduction assay with recombinant mutant enzyme
pIC50: −log10 of the molar value.
Observable: pIC50

[[record]]
structure_smiles_string = "CC(=O)N=C1C=CC(=O)C=C1"
assay_system = "human TrxR1 Sec498Cys mutant enzyme (Homo sapiens, UniProt Q16881, U648C)"
observable = "pIC50"
measured_result = 4.77


---

Molecular target: thioredoxin reductase 1 (TrxR1) (Rattus norvegicus)
Sequence (O89049 1-499): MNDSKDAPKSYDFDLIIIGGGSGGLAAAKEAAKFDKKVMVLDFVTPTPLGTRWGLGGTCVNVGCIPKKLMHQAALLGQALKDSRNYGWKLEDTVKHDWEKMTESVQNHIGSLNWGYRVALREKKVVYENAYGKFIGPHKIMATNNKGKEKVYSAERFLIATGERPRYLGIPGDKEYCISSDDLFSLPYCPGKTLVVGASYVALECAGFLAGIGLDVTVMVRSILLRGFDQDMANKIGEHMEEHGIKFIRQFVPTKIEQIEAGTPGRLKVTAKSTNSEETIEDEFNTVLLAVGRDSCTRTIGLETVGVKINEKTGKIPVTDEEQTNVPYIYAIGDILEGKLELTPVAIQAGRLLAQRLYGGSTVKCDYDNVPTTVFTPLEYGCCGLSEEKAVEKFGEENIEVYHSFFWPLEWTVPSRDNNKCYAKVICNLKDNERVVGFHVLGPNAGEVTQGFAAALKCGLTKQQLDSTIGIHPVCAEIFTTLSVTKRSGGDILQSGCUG
Observable: IC50 (nM)

[[record]]
structure_smiles_string = "CC(=O)N=C1C=CC(=O)C=C1"
measured_result = 23

